# target-or-test-system: T1, Bcat-Halo (UniProt P35222 1-781)
# T1 sequence (looked up): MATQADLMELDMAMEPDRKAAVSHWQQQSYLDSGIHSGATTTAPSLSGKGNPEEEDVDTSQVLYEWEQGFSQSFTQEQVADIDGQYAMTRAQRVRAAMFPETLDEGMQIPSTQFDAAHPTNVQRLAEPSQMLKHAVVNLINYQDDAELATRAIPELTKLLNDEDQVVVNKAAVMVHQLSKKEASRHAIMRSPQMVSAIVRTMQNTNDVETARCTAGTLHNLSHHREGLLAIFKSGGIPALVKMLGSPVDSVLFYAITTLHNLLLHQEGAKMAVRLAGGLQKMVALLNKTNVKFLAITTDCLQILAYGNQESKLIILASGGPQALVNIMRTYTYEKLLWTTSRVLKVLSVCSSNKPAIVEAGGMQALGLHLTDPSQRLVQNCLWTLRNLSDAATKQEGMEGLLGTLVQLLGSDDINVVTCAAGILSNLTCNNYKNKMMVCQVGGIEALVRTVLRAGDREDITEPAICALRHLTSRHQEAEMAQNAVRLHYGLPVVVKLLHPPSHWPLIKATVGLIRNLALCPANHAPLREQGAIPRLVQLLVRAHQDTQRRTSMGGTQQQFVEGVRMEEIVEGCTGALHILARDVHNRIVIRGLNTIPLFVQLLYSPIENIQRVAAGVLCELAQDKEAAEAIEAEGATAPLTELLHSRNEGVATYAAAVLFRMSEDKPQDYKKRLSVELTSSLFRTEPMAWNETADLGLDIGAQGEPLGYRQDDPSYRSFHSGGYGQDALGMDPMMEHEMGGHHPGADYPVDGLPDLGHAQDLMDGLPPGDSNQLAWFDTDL
# assay-notes: cell-based or functional assay
Starred links: 1 amine or outer side, 2 acyl side, 3 side chain; linkers in the order of their positions; H or OH if unused. Positions of bridges follow the written chain, without caps; N, C: chain ends. Non-standard residues stand in square brackets, D forms with d. Primed or numbered codes have the meaning given here. (CH2CMe2CO2H)TriAzDap = (S)-3-(1-(2-amino-2-carboxyethyl)-1H-1,2,3-triazol-4-yl)-2,2-dimethylpropanoic acid, CC(C)(Cc1cn(C[C@H](N[*:1])C(=O)[*:2])nn1)C(=O)[*:3]; (CH2CMe2CO2H)TriAzDab = (S)-2-amino-4-(4-(2-carboxy-2-methylpropyl)-1H-1,2,3-triazol-1-yl)butanoic acid, CC(C)(Cc1cn(CC[C@H](N[*:1])C(=O)[*:2])nn1)C(=O)[*:3]; (CMe2CO2H)TriAzDap = (S)-2-amino-3-(4-(2-carboxypropan-2-yl)-1H-1,2,3-triazol-1-yl)propanoic acid, CC(C)(C(=O)[*:3])c1cn(C[C@H](N[*:1])C(=O)[*:2])nn1; PyrS2″ = (S)-3-amino-1-((pent-4-en-1-yloxy)carbonyl)pyrrolidine-3-carboxylic acid (stapling residue), C=CCCCOC(=O)N1CC[C@@](N[*:1])(C(=O)[*:2])C1; (CH2CO2H)TriAzDab = (S)-2-amino-4-(4-(carboxymethyl)-1H-1,2,3-triazol-1-yl)butanoic acid, O=C([C@H](CCn1cc(CC(=O)[*:3])nn1)N[*:1])[*:2]; B5(4) = 2,2-bis(4-pentenyl)glycine = 2-amino-2-(pent-4-en-1-yl)hept-6-enoic acid (stitching residue), C=CCCCC(CCCC=C)(N[*:1])C(=O)[*:2]; Phe(3-COOH) = N[C@@H](Cc1cccc(C(=O)O)c1)C(=O)O; 2F3MeF = Cc1cccc(C[C@H](N[*:1])C(=O)[*:2])c1F; Bta = N[C@@H](Cc1csc2ccccc12)C(=O)O; αAllylPro = C=CC[C@@]1(C(=O)O)CCCN1; tBuAla = CC(C)(C)C[C@H](N)C(=O)O; 3Thi = N[C@@H](Cc1ccsc1)C(=O)O; PyrS2(4) = not defined here
Label rule, in plain words: NanoBRET Abs IC50 of 5 µM and up is YES, under 5 µM is NO.

[[record]]
binder = "Ac-[αAllylPro]D[tBuAla][B5(4)]D[(CMe2CO2H)TriAzDap]AAFL[PyrS2″][3Thi][Bta]Q-NH2 (staple 1-4, 4-11) [I-2085]"
class = "YES"

[[record]]
binder = "Ac-[αAllylPro]D[tBuAla][B5(4)]D[Phe(3-COOH)]AAFF[PyrS2″][2F3MeF][Bta][dA]-NH2 (staple 1-4, 4-11) [I-2095]"
class = "YES"

[[record]]
binder = "Ac-[αAllylPro]D[tBuAla][B5(4)]D[Phe(3-COOH)]AAFL[PyrS2″][3Thi][Bta][dQ]-NH2 (staple 1-4, 4-11) [I-2088]"
class = "NO"

[[record]]
binder = "Ac-[αAllylPro]D[tBuAla][B5(4)]D[(CH2CMe2CO2H)TriAzDap]AAFL[PyrS2″][3Thi][Bta]Q-NH2 (staple 1-4, 4-11) [I-2083]"
class = "NO"

[[record]]
binder = "Ac-[αAllylPro]D[tBuAla][B5(4)]D[Phe(3-COOH)]AAFL[PyrS2(4)][2F3MeF][Bta][dQ]-NH2 (staple 1-4, 4-11; reading uncertain) [I-2089]"
class = "NO"

[[record]]
binder = "Ac-[αAllylPro]D[tBuAla][B5(4)]D[Phe(3-COOH)]AAFL[PyrS2(4)][3Thi][Bta][dA]-NH2 (staple 1-4, 4-11; reading uncertain) [I-2090]"
class = "YES"

[[record]]
binder = "Ac-[αAllylPro]D[tBuAla][B5(4)]D[(CH2CO2H)TriAzDab]AAFL[PyrS2″][3Thi][Bta]Q-NH2 (staple 1-4, 4-11) [I-2078]"
class = "YES"

[[record]]
binder = "Ac-[αAllylPro]D[tBuAla][B5(4)]D[(CH2CMe2CO2H)TriAzDab]AAFL[PyrS2″][3Thi][Bta]Q-NH2 (staple 1-4, 4-11) [I-2077]"
class = "YES"

